Study system: T1, full length human tau protein 2N4R (hT40) (human, UniProt P10636 1-758)
T1 construct: recombinant; also called T441
T1 sequence (P10636 other isoform, or with tags, fused parts or gaps limits assumed): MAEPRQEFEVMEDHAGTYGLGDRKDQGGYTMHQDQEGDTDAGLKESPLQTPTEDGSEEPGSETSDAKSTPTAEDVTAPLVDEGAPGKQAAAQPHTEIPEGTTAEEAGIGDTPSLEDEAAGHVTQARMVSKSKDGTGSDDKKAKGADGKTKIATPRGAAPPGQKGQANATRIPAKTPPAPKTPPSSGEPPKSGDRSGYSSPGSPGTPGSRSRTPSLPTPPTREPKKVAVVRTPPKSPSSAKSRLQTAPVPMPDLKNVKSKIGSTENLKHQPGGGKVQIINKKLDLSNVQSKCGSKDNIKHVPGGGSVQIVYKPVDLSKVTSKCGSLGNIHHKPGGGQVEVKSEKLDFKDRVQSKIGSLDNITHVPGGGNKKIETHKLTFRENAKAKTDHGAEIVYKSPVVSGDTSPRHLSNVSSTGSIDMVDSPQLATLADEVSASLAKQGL
Test: SPR, hT40 immobilised, mAb analyte
Measured attribute: pKd
Expect pKd as a plain number equal to -log10 of the molar concentration.

Solved cases (2 shown):
| Binder | Test value |
| --- | --- |
| CE3 mAb (antibody, mouse IgG2a, V domains shown, sheep-mouse IgG2a chimeric mAb) VH: QVRLQESGPSLVKPSQTLSVTCTVSGFSLISNAVGWVRQAPGKVPESLAGCSSDGKCYYNSALKSRLDITRDTSKNQISLSLSSVTTDDAAVYYCTRGYYPVYGYDYLGTIDYWGPGLLVTVSS VL: QAVLTQPSSVSGSLGQRVSITCSGSSSNVGRNDVAWFQQLPGSGLRTIIYGTTSRPSGIPDRFSGSKSGVTATLTIDSLQAEDEADYFCASGDSSAINDIFGSGTRLTVLG | 7.78 |
| S1G2 mAb (antibody, mouse IgG2a, V domains shown, sheep-mouse IgG2a chimeric mAb; also called S1G2 antibody) VH: QVQLQESGPSLVKPSQTLSLTCTVSGFSLTSNSVGWVRQAPGKAPEWVAGIDTDGEEGYNPALNSRLSITRDTSKSQVSLSLSSVTSEDTAVYYCGRSYRADGLAYGYVQAIDYWGPGLLVTVSS VL: QAVVTQPSSVSGSLGQRVSITCSGSFIGISSVGWFQQLPGSGLRTIIVASDGRPSGVPDRFSMSKSGNTATLTISSLQAEDEADYFCGSSDRTPYTGVFGSGTRLTVLG | 9.85 |

GET /values?readout=pKd&item= 412E10 mAb (antibody, mouse IgG2a, V domains shown, sheep-mouse IgG2a chimeric mAb) VH: QVQLQESGPSLVKPSQTLSLTCTVSGFSVISDSVAWVRQAPGKVPEWLGASGSSGNKYYNPALKSRLSITRDTSKSQVSLSLSSVTTEDTAVYYCARGIIAGVDVWGRGLLVTVSS VL: QAVLTQPSSVSGSLGQRVSITCSGSSSNVGYGNYVGWYQQVPGSAPKLLIYGTAIRASGVPDRFSGSRSGDTATLTITSLQAEDEADYYCASYQSNYAFFGSGTRLTVLG 8.05

Then S1D12 mAb (antibody, mouse IgG2a, V domains shown, sheep-mouse IgG2a chimeric mAb; also called S1D12 antibody; SD12) VH: QVQLQESGPSLVKPSQTLSLTCTVSGFSLNNNAVGWVRQAPGKVPESLVGCSSDGTCYYNSALKSRLDITRDTSKNQISLSLSSVTTDDAAVYYCTRGHYSIYGYDYLGTIDYWGPGLLVTVSS VL: QAVLTQPSSVSGSLGQRVSITCSGSSSNVGGGNSVGWYQHLPGSGLKTIIYDTNSRPSGVPDRFSGSRSGNTATLTINSLQAEDEGDYYCVTGDSTTHDDLVGSGTRLTVLG ? 10.00

Then CE2 mAb (antibody, mouse IgG2a, V domains shown, sheep-mouse IgG2a chimeric mAb) VH: QVQLQESGPSLVKPSQTLSLTCTVSGFSLTNYPVGWVRQAPGKALEWIGNIENDGSANYASALKSRLSITRDTSKNQVSLSLSSATTEDTAVYYCGREFGGSDGYTYFVDIDYWGPGLLVTVSS VL: QAVLTQPSSVSKSLGQSVSITCSGSSSNVGYGNYVSWFQQVPGSAPKILIYGATSRASGVPDRFSGSRSGNTATLTITSLQAEDEADYYCASYDGSSSGVFGSGTRLTVLG ? 7.96

Where do the numbers come from? From patent US20250355001A1.
